MEASURED_TARGET: KRAS G12V (amino acids 1-169) (Homo sapiens, UniProt P01116, G12V)
Sequence (P01116 with tags, fused parts or gaps isoform P01116-2 G12V): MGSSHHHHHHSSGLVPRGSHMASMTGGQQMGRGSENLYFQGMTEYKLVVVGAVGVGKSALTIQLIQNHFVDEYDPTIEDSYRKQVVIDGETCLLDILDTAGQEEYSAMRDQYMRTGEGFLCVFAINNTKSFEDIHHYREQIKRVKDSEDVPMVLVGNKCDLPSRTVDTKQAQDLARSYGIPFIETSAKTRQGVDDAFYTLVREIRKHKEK
RUN_DESCRIPTION: SOS-catalyzed nucleotide exchange assay (Procedure B, BODIPY FL GDP displacement)
CONDITION_INFO: Procedure B (Example Nos. 18, 21, 23, 33-34); 1 hour incubation, SOS1 + GMPPNP; read-out: KRAS G12V GNE IC50
pIC50: −log10 of the molar value.
READOUT_TYPE: pIC50

compound="N#Cc1c(N)sc2c(F)cc(F)c(-c3ncc4c(N5CCCOCC5)nc(OC[C@@]56CCCN5C[C@H](F)C6)nc4c3F)c12 [Ex. 23]" readout_type=pIC50 measured=7.11
compound="N#Cc1c(N)sc2c(F)ccc(-c3c(Cl)cc4c(N5CCCOCC5)nc(OC[C@@]56CCCN5C[C@H](F)C6)nc4c3F)c12 (single isomer, unassigned) [Ex. 18]" readout_type=pIC50 measured=8.54
compound="C[C@H]1CCOCCN1c1nc(OC[C@@]23CCCN2C[C@H](F)C3)nc2c(F)c(-c3ccc(F)c4sc(N)c(C#N)c34)ncc12 [compound 21]" readout_type=pIC50 measured=7.20
compound="N#Cc1c(N)sc2c(F)ccc(-c3c(C(F)(F)F)cc4c(N5CCCOCC5)nc(OC[C@@]56CCCN5C[C@H](F)C6)nc4c3F)c12 [Ex. 34]" readout_type=pIC50 measured=8.78
compound="N#Cc1c(N)sc2c(F)ccc(-c3c(Cl)cc4c(N5CCCOCC5)nc(OC[C@]5(CO)CC5(F)F)nc4c3F)c12 (single isomer, unassigned) [Ex. 33]" readout_type=pIC50 measured=5.65

###

Here, each record is paired with measured pIC50 data.
MEASURED_TARGET: KRAS-G13D (Homo sapiens, UniProt P01116, G13D)
Construct: N-terminal biotin-acceptor peptide […]
Sequence (P01116 with tags, fused parts or gaps isoform P01116-2 G13D): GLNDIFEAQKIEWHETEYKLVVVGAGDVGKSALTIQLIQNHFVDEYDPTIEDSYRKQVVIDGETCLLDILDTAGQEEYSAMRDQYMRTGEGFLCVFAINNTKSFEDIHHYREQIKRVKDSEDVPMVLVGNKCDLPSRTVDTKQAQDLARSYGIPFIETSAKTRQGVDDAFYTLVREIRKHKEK
RUN_DESCRIPTION: SOS-catalyzed nucleotide exchange assay (Procedure A, TR-FRET)
CONDITION_INFO: 60 min preincubation, GTP, read-out: KRAS G13D GNE IC50
pIC50: −log10 of the molar value.
READOUT_TYPE: pIC50

compound="N#Cc1c(N)sc2c(F)ccc(-c3ncc4c(N5CCCOCC5)nc(OC[C@@]56CCCN5C[C@H](F)C6)nc4c3F)c12 [Ex. 20]" operator== measured=7.03
compound="COCC1CCOCCN1c1nc(OC[C@@]23CCCN2C[C@H](F)C3)nc2c(F)c(-c3ccc(F)c4sc(N)c(C#N)c34)c(Cl)cc12 (stereo partly drawn) [compound 16]" operator== measured=8.00
compound="N#Cc1c(N)sc2c(F)ccc(-c3c(C(F)(F)F)cc4c(N5CCCOCC5)nc(OC[C@@]56CCCN5C[C@H](F)C6)nc4c3F)c12 (single isomer, unassigned) [Ex. 35]" operator== measured=8.95
compound="C[C@@H]1CCOCCN1c1nc(OC[C@@]23CCCN2C[C@H](F)C3)nc2c(F)c(-c3ccc(F)c4sc(N)c(C#N)c34)c(Cl)cc12 [compound 7]" operator== measured=8.07
compound="C[C@H]1CCOCCN1c1nc(OC[C@@]23CCCN2C[C@H](F)C3)nc2c(F)c(-c3ccc(F)c4sc(N)c(C#N)c34)c(Cl)cc12 [Ex. 6]" operator== measured=8.62
compound="Cc1cc(N)nc(-c2c(F)cc3c(N4CC[C@@H]5[C@@H](C#N)[C@@H]5CC4)nc(OC[C@@]45CCCN4C[C@H](F)C5)nc3c2F)c1C(F)(F)F [Ex. 45]" operator=≤ measured=4.96
